The values you see were collected from patent US12435061B2.

EXPERIMENTAL SYSTEM: hTRPV3 (Homo sapiens (Human))
PROTOCOL NOTES: hTRPV3 HAMA IC50 assay (Hamamatsu FDSS6000 calcium flux, TRex-293 cells)
CONDITIONS: hTRPV3 HAMA IC50 (nM) (30 min), 30 min
Sequence (Q8NET8 whole entry): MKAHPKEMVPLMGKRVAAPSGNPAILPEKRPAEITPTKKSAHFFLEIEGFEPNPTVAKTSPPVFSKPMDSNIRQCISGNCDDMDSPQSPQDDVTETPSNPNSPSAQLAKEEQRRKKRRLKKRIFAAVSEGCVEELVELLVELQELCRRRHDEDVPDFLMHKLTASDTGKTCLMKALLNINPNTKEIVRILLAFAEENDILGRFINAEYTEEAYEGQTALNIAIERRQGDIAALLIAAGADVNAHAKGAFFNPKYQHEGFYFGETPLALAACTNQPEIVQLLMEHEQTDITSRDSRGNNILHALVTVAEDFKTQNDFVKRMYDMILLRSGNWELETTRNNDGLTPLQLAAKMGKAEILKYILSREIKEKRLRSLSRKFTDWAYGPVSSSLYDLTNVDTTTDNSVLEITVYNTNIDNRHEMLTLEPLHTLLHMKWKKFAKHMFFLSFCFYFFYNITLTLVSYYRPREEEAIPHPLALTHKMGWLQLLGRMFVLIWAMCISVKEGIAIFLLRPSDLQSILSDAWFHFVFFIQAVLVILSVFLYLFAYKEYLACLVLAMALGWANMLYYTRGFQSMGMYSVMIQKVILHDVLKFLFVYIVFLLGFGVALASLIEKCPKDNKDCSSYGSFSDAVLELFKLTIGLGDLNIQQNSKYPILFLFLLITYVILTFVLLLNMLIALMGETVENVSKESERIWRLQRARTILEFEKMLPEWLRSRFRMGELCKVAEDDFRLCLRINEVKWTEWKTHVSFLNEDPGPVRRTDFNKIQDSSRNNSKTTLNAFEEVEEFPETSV
Below, each entry is listed with its recorded IC50.
Number only, in nM; omit the unit.

>  <MOLECULE>
OCCc1cc(Oc2ccccc2Cl)ccc1N1CC[C@H](Oc2ncccc2Cl)C1 [Compound 1-238]

>  <IC50 [nM]>
16700

$$$$
>  <MOLECULE>
Cc1ccccc1Oc1ccc(N2CC[C@H](Oc3ncccc3Cl)C2)c(CO)c1 [Compound 1-173]

>  <IC50 [nM]>
1900

$$$$
>  <MOLECULE>
COc1ccccc1Oc1ccc(N2CC[C@H](Oc3ncccc3Cl)C2)c(CO)c1 [Compound 1-221]

>  <IC50 [nM]>
19400

$$$$
>  <MOLECULE>
OCc1cc(Oc2ccccc2Cl)ccc1N1CC[C@H](Oc2ncccc2Cl)C1 [Compound 1-223]

>  <IC50 [nM]>
14600

$$$$

Here is another molecule to look at.
Query: For hTRPV3 (Homo sapiens (Human)), provide IC50 of COc1ccccc1Oc1ccc(N2CC[C@H](Oc3ncccc3Cl)C2)c(CCO)c1 [Compound 1-237] please.
Response: 19800

----------
Below, each entry is listed with its recorded pIC50.
EXPERIMENTAL SYSTEM: hTRPV3 (Homo sapiens (Human))
PROTOCOL NOTES: Whole-cell patch clamp, hTRPV3 Phase 1 / Phase 2 currents
Format: cell-based
CONDITIONS: Phase 2 current, inward, whole-cell patch clamp; read-out: hTRPV3 Patch P2 Inwd
pIC50: −log10 of the molar value.

Check out these entries, answers already filled in.
>  <COMPOUND>
CCc1ccccc1-c1ccc(N2CC[C@H](Oc3ccc(C)cn3)C2)c(CO)n1

>  <pIC50>
< 6.00

$$$$
>  <COMPOUND>
N#Cc1ccc(-c2ccccc2)cc1N1CC[C@H](Oc2ccc(C(F)(F)F)cn2)C1

>  <pIC50>
< 6.00

$$$$
>  <COMPOUND>
COc1ccccc1Oc1ccc(N2CC[C@H](Oc3ccc(F)cn3)C2)c(CO)c1

>  <pIC50>
6.00 to 7.00

$$$$
>  <COMPOUND>
OCc1cc(-c2ccccc2)ncc1N1CC[C@H](Oc2ccc(C(F)(F)F)cn2)C1

>  <pIC50>
6.00 to 7.00

$$$$
>  <COMPOUND>
NC(=O)c1cc(-c2cccnc2)ccc1N1CC[C@H](Oc2ccc(C(F)(F)F)cn2)C1

>  <pIC50>
< 6.00

$$$$
>  <COMPOUND>
NC(=O)c1cc(-c2ccccc2)cnc1N1CC[C@@H](Nc2ccc(C(F)(F)F)cn2)C1

>  <pIC50>
< 6.00

$$$$
>  <COMPOUND>
NC(=O)c1cc(-c2ccccc2)ccc1N1CC[C@H](Nc2ncccc2Cl)C1 [Compound 1-373]

>  <pIC50>
6.00 to 7.00

$$$$

Query: For hTRPV3 (Homo sapiens (Human)), provide pIC50 of COCc1ccc(C(O)c2ccc(N3CC[C@H](Oc4ncccc4Cl)C3)c(CO)c2)cc1 (some centres unmarked) please.
Response: < 6.00

----------
EXPERIMENTAL SYSTEM: hTRPV3 (Homo sapiens (Human), UniProt Q8NET8)
PROTOCOL NOTES: Whole-cell patch clamp, hTRPV3 Phase 1 / Phase 2 currents
Type: cell-based
CONDITIONS: Phase 1 current; read-out: hTRPV3 (nM) (Phase 1)
Decide using IC50 alone. Strictly below 500 nM: y. Equal to or above 500 nM: n.

Use the examples below as a reference point.
>  <COMPOUND>
OCc1nc(-c2ccccc2)ccc1N1C[C@@H](O)[C@H](Oc2ccc(C(F)(F)F)cn2)C1

>  <EXPERIMENTAL SYSTEM>
hTRPV3 (Homo sapiens (Human), UniProt Q8NET8)

>  <LABEL VALUE>
n

$$$$
>  <COMPOUND>
OCc1cc(Oc2ccccc2Cl)ccc1N1CC[C@H](Oc2ncccc2Cl)C1

>  <EXPERIMENTAL SYSTEM>
hTRPV3 (Homo sapiens (Human), UniProt Q8NET8)

>  <LABEL VALUE>
y

$$$$
>  <COMPOUND>
OCc1cc(C(O)c2ccccc2Cl)ccc1N1CC[C@H](Oc2ncccc2F)C1 (some centres unmarked)

>  <EXPERIMENTAL SYSTEM>
hTRPV3 (Homo sapiens (Human), UniProt Q8NET8)

>  <LABEL VALUE>
y

$$$$

Query: Decide: IC50 of CC(C)(C)OC(=O)N1CCC(c2ccc(N3CC[C@H](Oc4ccc(C(F)(F)F)cn4)C3)c(CO)c2)CC1 strictly below 500 nM?
Response: n

Query: Decide: IC50 of OCc1cc(C(O)c2ccccc2Cl)ccc1N1CC[C@H](Oc2ncccc2Cl)C1 (some centres unmarked) strictly below 500 nM?
Response: y

Query: Decide: IC50 of N#Cc1ccccc1-c1ccc(N2CC[C@H](Oc3ccc(F)cn3)C2)c(CO)n1 strictly below 500 nM?
Response: n

Query: Decide: IC50 of OCc1cc(C(O)c2ccccc2Cl)ccc1N1CC[C@H](Oc2ccccn2)C1 (some centres unmarked) strictly below 500 nM?
Response: y

Query: Decide: IC50 of Cc1ccc(O[C@H]2CCN(c3ccc(-c4ccccn4)cc3CO)C2)nc1 strictly below 500 nM?
Response: n

Query: Decide: IC50 of NC(=O)c1nc(-c2ccccc2)ccc1N1CC[C@@H](Oc2ccc(C(F)(F)F)cn2)C1 strictly below 500 nM?
Response: y

Query: Decide: IC50 of CCc1ccccc1C(O)c1ccc(N2CC[C@H](Oc3ncccc3Cl)C2)c(CO)c1 (some centres unmarked) [Compound 1-257] strictly below 500 nM?
Response: n

Query: Decide: IC50 of OCc1ccc(-c2ccccc2Cl)cc1N1CC[C@H](Oc2ccc(C(F)(F)F)cn2)C1 strictly below 500 nM?
Response: y

Query: Decide: IC50 of COc1ccccc1-c1ccc(N2CC[C@H](Oc3ncccc3F)C2)c(CO)n1 strictly below 500 nM?
Response: n

Query: Decide: IC50 of O=C(c1ccc(N2CC[C@H](Nc3ccc(F)cn3)C2)c(CCO)c1)c1ccccc1Cl strictly below 500 nM?
Response: n

Query: Decide: IC50 of COCc1ccc(C(O)c2ccc(N3CC[C@H](Oc4ncccc4Cl)C3)c(CO)c2)cc1 (some centres unmarked) strictly below 500 nM?
Response: n

Query: Decide: IC50 of CCc1c(Cl)ncnc1Oc1ccc(N2CC[C@H](Oc3ncccc3Cl)C2)c(CO)c1 strictly below 500 nM?
Response: y

Query: Decide: IC50 of Cc1ccccc1-c1ccc(N2CC[C@H](Oc3ccc(F)cn3)C2)c(CO)n1 strictly below 500 nM?
Response: y

Query: Decide: IC50 of Cc1cccnc1-c1ccc(N2CC[C@H](Oc3ccc(C(F)(F)F)cn3)C2)c(CO)c1 strictly below 500 nM?
Response: n

Query: Decide: IC50 of CCc1ccccc1C(=O)c1ccc(N2CC[C@H](Nc3ncccc3Cl)C2)c(CCO)c1 strictly below 500 nM?
Response: n

----------
Below, each entry is listed with its recorded pIC50.
EXPERIMENTAL SYSTEM: hTRPV3 (Homo sapiens (Human))
PROTOCOL NOTES: Semi-auto patch clamp recording in nHEK cells (WT or TRPV3-mu transfected)
Assay type: cell-based
Sequence (Q8NET8 whole entry, looked up): as the sequence (Q8NET8 whole entry) above
pIC50: −log10 of the molar value.

>  <MOLECULE>
COCc1cncc(C(=O)N2CCC(c3ccc(-c4ccccc4C4CC4)cc3CO)C2)n1 (stereo not drawn)

>  <ENDPOINT VALUE>
7.00 to 8.00

$$$$
>  <MOLECULE>
Cc1nc(C(=O)N2CCC(c3ccc(-c4cc(F)ccc4C4CC4)cc3CO)C2)ccc1O (stereo not drawn)

>  <ENDPOINT VALUE>
> 8.00

$$$$
>  <MOLECULE>
Cc1nc(C(=O)N2CCC(c3ccc(-c4ccc(F)cc4C4CC4)cc3CO)C2)ccc1O (stereo not drawn)

>  <ENDPOINT VALUE>
7.00 to 8.00

$$$$
>  <MOLECULE>
CC(C)c1ccccc1-c1ccc([C@@H]2CCN(C(=O)c3ccc(F)cn3)C2)c(CO)c1 [KM-002-E2]

>  <ENDPOINT VALUE>
7.00 to 8.00

$$$$
>  <MOLECULE>
Cc1nc(C(=O)N2CC[C@H](c3ccc(-c4ccccc4C4CC4)cc3CO)C2)ccc1O (stereo in doubt) [KM-023-E1]

>  <ENDPOINT VALUE>
> 8.00

$$$$

Here is another molecule to look at.
Query: Requested field: pIC50. Item: CNc1cncc(C(=O)N2CC[C@H](c3ccc(-c4ccccc4C4CC4)cc3CO)C2)n1 (stereo in doubt) [KM-054-E1]
Response: > 8.00
